Source: patent US20200079833A1

Target: T1, glucose-dependent insulinotropic peptide (gastric inhibitory polypeptide) receptor (GIPR), primary cAMP assay (human, UniProt P48546 22-466)
T1 sequence (looked up): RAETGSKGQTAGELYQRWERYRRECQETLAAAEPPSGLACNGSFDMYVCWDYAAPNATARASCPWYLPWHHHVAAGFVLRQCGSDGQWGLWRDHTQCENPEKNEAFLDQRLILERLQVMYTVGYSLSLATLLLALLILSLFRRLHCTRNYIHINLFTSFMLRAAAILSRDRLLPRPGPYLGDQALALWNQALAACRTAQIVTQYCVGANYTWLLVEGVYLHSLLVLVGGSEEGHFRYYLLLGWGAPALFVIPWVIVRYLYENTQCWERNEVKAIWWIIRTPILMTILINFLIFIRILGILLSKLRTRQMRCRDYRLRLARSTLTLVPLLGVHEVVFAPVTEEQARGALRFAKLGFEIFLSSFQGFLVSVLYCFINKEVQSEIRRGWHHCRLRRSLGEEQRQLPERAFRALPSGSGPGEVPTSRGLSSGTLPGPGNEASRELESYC
Assay: cell-based or functional assay
Starred links: 1 amine or outer side, 2 acyl side, 3 side chain; linkers in the order of their positions; H or OH if unused. Non-standard residues stand in square brackets, D forms with d. Groups on a side chain read outwards from the residue. Primed or numbered codes have the meaning given here. No end group written: not given here. *: point of attachment. Tyr(OMe) = COc1ccc(C[C@H](N[*:1])C(=O)[*:2])cc1; γGlu = O=C(O)[C@H](CCC(=O)[*:2])N[*:1]; Palmitoyl = CCCCCCCCCCCCCCCC(=O)*; αMeF = C[C@](N)(Cc1ccccc1)C(=O)O; αMeK = C[C@](N)(CCCCN)C(=O)O; Lauroyl = CCCCCCCCCCCC(=O)*; αMeS = C[C@](N)(CO)C(=O)O; PEG2′ = not defined here; Aib = CC(C)(N)C(=O)O
MEASURED PROPERTY: Primary assay EC50 (cAMP), n1 (nM)

H[Aib]EGS[αMeF]TSDV[αMeS]SK([PEG2′-PEG2′-γGlu-Lauroyl])LEGEAA[αMeK]E[Tyr(OMe)]IAK([PEG2′-PEG2′-γGlu-Lauroyl])VVEGG-NH2 [SEQ ID NO: 406]: 21.5
H[Aib]EGS[αMeF]TSDVSK([PEG2′-PEG2′-γGlu-Lauroyl])YLEGEAA[αMeK]EFIAK([PEG2′-PEG2′-γGlu-Lauroyl])VVEGG-NH2 [SEQ ID NO: 252]: 22.7
H[Aib]EGS[αMeF]TSDK([PEG2′-PEG2′-γGlu-Palmitoyl])SSYLEGEAA[αMeK]EFIAWK([PEG2′-PEG2′-γGlu-Palmitoyl])VEGG-NH2 [SEQ ID NO: 261]: 23
H[Aib]EGS[αMeF]TSDV[αMeS]SK([PEG2′-PEG2′-γGlu-Lauroyl])LEGEAA[αMeK]EFIK([PEG2′-PEG2′-γGlu-Lauroyl])WVVEGG-NH2 [SEQ ID NO: 262]: 22.5
